molecular target: Prostaglandin E2 receptor EP2 subtype (Homo sapiens, UniProt P43116)
Sequence (P43116 whole entry): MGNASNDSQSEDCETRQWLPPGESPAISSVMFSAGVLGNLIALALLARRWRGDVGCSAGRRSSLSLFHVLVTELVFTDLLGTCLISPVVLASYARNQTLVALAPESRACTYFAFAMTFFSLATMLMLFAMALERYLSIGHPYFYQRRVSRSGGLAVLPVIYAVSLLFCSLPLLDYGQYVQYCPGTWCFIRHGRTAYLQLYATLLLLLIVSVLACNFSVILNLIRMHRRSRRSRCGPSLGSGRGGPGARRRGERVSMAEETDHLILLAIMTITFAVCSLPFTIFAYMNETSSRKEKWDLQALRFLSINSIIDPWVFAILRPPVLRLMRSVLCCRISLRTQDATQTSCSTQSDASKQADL
pKi: −log10 of the molar value.
measure-name: pKi

Use these answered entries as a reference point.
> print(dat)
                                   compound  measure.name  reading
1  O=C(/C=C/c1ccccc1-c1ccc(Cl)c(Cl)c1)NS(=O)(=O)c1cccs1           pKi     5.00
2      O=C(O)CCc1ccccc1-c1cccc(-c2ccccc2)c1           pKi     5.09
3  O=C(O)CCc1ccccc1-c1ccc(-c2ccccc2OCc2ccccc2)s1           pKi     5.39
4  O=C(O)C1CC1c1ccccc1-c1csc(-c2ccccc2OCc2ccccc2)c1 (configuration not stated)           pKi     5.64
5  CC(Cc1ccccc1-c1cccc(-c2ccccc2OCc2ccccc2)c1)C(=O)O (configuration not stated)           pKi     5.44

A = O=C(O)Cc1ccccc1-c1cccc(-c2ccccc2OCc2ccccc2)c1
B = O=C(O)/C=C/c1ccccc1-c1ccc(Cl)c(Cl)c1
### Prompt Could you tell me which of these two has the smaller pKi figure? First: A Second: B Answer format: the label of the selected item.
### Response B

---

biological target: Prostaglandin E2 receptor EP4 subtype (Homo sapiens, UniProt P35408)
Sequence (P35408 whole entry): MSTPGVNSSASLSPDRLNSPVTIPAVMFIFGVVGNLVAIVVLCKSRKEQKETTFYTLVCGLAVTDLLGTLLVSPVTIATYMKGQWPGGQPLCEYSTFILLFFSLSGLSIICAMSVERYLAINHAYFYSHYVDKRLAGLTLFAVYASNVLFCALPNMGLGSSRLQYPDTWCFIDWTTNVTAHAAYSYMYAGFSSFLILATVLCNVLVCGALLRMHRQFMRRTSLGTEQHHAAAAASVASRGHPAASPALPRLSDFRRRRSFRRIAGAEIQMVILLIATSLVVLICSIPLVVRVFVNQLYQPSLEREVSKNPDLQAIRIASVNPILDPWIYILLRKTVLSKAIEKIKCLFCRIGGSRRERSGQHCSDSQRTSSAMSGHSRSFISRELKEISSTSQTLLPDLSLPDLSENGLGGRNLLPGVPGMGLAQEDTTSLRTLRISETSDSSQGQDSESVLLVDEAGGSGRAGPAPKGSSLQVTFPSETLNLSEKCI
measure-name: Ki (nM)

Use these answered entries as a reference point.
> print(dat)
                                   molecule  measure.name  reading
1  O=C(O)Cc1ccccc1-c1cccc(-c2ccccc2OCc2ccccc2)c1            Ki     1100
2  CC(Cc1ccccc1-c1cccc(-c2ccccc2OCc2ccccc2)c1)C(=O)O (stereo not given)            Ki     1200
3  O=C(CCc1ccccc1-c1cccc(-c2ccccc2OCc2ccccc2)c1)NS(=O)(=O)c1cccs1            Ki     1700
4  O=C(O)CCc1ccccc1-c1ccc(-c2ccccc2OCc2ccccc2)s1            Ki     1100

1 = O=C(O)CCc1ccccc1-c1cccc(-c2ccccc2OCc2c(Cl)cccc2Cl)c1
2 = O=C(O)CCc1ccccc1-c1cccc(-c2ccccc2OCc2ccccc2)c1
3 = O=C(O)CCc1ccccc1-c1cc(-c2ccccc2OCc2ccccc2)cs1
4 = O=C(O)CCc1ccccc1-c1cccc(-c2ccc(OCc3ccccc3)cc2)c1
### Prompt Could you please sort these 4 entries by Ki from high to low? // rank by listing labels in the order requested
### Response 4, 2, 1, 3

1 = CC(CC(=O)O)c1ccccc1-c1csc(-c2ccccc2OCc2ccccc2)c1 (stereo not given)
2 = O=C(O)CCCc1ccccc1-c1cccc(-c2ccccc2OCc2ccccc2)c1
### Prompt Determine, for 1 and 2 , which has the greater value of Ki. Answer format: the label of the selected item.
### Response 2
(2: 2000 nM, 1: 1100 nM)

---

Measured Ki on Prostaglandin E2 receptor EP3 subtype (Homo sapiens, UniProt P43115) follows.
Sequence (P43115 whole entry): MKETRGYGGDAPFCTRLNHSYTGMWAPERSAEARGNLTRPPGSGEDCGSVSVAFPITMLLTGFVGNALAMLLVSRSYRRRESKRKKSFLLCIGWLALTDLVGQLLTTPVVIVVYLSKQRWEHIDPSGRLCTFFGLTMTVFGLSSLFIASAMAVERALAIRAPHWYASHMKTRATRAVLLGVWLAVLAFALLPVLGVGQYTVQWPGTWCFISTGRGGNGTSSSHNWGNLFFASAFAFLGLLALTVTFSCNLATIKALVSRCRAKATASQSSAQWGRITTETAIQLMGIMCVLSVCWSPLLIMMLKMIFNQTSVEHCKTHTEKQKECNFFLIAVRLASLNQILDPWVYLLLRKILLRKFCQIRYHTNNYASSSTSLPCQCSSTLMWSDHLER
measure-name: Ki (nM)

Use these answered entries as a reference point.
> print(dat)
                                   molecule  reading
1  O=C(O)CCc1ccccc1-c1cccc(-c2ccccc2OCc2ccccc2)c1       55
2  CC(CC(=O)O)c1ccccc1-c1csc(-c2ccccc2OCc2ccccc2)c1 (stereo unspecified)       35
3  O=C(O)/C=C/c1ccccc1-c1cccc(-c2ccccc2OCc2ccccc2)c1       84
4  O=C(CCc1ccccc1-c1cccc(-c2ccccc2OCc2ccccc2)c1)NS(=O)(=O)c1cccs1       16
5  O=C(O)CCc1ccccc1-c1cccc(-c2ccc(OCc3ccccc3)cc2)c1     1500

P = CC(Cc1ccccc1-c1cccc(-c2ccccc2OCc2ccccc2)c1)C(=O)O (stereo unspecified)
Q = O=C(O)c1ccc(CCCc2ccccc2OCc2ccccc2)cc1
### Prompt Determine, for P and Q , which has the greater value of Ki. Answer format: the label of the selected item.
### Response Q

a = O=C(O)CCc1ccccc1-c1ccc(-c2ccccc2OCc2ccccc2)s1
b = O=C(O)Cc1ccccc1-c1cccc(-c2ccccc2OCc2ccccc2)c1
### Prompt Determine, for a and b , which has the greater value of Ki. Answer format: the label of the selected item.
### Response b

I = O=C(O)CCc1ccccc1-c1cccc(-c2ccccc2OCc2c(Cl)cccc2Cl)c1
II = O=C(O)/C=C/c1ccccc1-c1ccc(Cl)c(Cl)c1
### Prompt Could you tell me which of these two has the smaller Ki figure? First: I Second: II Answer format: the label of the selected item.
### Response I
